Molecular target: human A2B receptor (Homo sapiens, UniProt P29275)
Sequence (P29275 1-332): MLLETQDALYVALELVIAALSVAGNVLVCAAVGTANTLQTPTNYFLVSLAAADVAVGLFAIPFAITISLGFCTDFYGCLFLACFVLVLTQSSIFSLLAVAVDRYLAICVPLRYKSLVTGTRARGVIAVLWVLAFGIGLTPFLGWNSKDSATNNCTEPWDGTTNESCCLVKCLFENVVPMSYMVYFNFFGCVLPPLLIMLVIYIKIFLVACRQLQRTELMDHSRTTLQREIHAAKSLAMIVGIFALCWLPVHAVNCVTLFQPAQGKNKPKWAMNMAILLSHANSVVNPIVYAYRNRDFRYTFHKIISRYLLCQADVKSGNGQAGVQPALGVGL
Experiment: cAMP (HTRF) functional assay, recombinant HEK293 cells expressing human A2B receptor, agonist NECA
pIC50: −log10 of the molar value.
This listing pairs compounds with measured pIC50.

Reference set (8 entries):
COc1ncc(N2CCOCC2)c2sc(NC(=O)N3CCC4(CCCOC4)C3)nc12 (centres unmarked); > 7.00
COc1ncc(-c2ccncc2)c2sc(NC(=O)N3CCC4(CCOCC4)C3)nc12; > 7.00
COc1ncc(-c2ccccc2)c2sc(NC(=O)c3ccc(C(=O)N(C)C)cc3)nc12; > 8.00
COc1ncc(N2CCOCC2)c2sc(NC(=O)c3ccc(N4C(=O)CCC4=O)cc3)nc12; > 7.00
COc1ncc(C2CCOCC2)c2sc(NC(=O)N3CCC(C)(O)CC3)nc12; > 7.00
COc1ncc(-c2cnn(C)c2)c2sc(NC(=O)N3CCC4(CCOC4)C3)nc12 (centres unmarked); > 7.00
COCCn1cc(C(=O)Nc2nc3c(OC)ncc(N4CCOCC4)c3s2)cn1; > 6.00
COc1ncc(-c2cnn(C)c2)c2sc(NC(=O)C3CC3)nc12; > 7.00

Ask: Recorded pIC50 of COCCOc1cccc(-c2cnc(OC)c3nc(NC(=O)c4cnn(CCOC)c4)sc23)c1 , please.
Result: > 8.00

Ask: Recorded pIC50 of COc1ncc(-c2ccccc2)c2sc(NC(=O)c3cnc(C)s3)nc12 , please.
Result: > 7.00

Ask: Recorded pIC50 of COCCOc1cccc(-c2cnc(OC)c3nc(NC(=O)c4ccc(C(=O)N(C)C)cc4)sc23)c1 , please.
Result: > 7.00

Ask: Recorded pIC50 of COc1ncc(-c2ccccc2)c2sc(NC(=O)N3CCC4(CCCOC4)C3)nc12 (centres unmarked) , please.
Result: > 7.00

Ask: Recorded pIC50 of COc1ncc(N2CCOCC2)c2sc(NC(=O)c3ccc(C(=O)N(C)C)cc3)nc12 , please.
Result: > 7.00

Ask: Recorded pIC50 of COc1ncc(N2CCOCC2)c2sc(NC(=O)N3CC[C@]4(CCOC4)C3)nc12 , please.
Result: > 6.00

Ask: Recorded pIC50 of COc1ncc(-c2ccccc2)c2sc(NC(=O)N3CC[C@]4(CCCOC4)C3)nc12 , please.
Result: > 7.00

Ask: Recorded pIC50 of COc1ncc(N2CCOCC2)c2sc(NC(=O)N3CCC4(CCOC4)C3)nc12 (centres unmarked) , please.
Result: > 6.00

Ask: Recorded pIC50 of COc1ncc(N2CCOCC2)c2sc(NC(=O)c3cnn(C)c3)nc12 , please.
Result: > 7.00

Ask: Recorded pIC50 of COc1ncc(N2CCOCC2)c2sc(NC(=O)c3ccc(CN4CCCC4=O)cc3)nc12 , please.
Result: > 7.00

Ask: Recorded pIC50 of COc1ncc(-c2cnn(C)c2)c2sc(NC(=O)N3CC[C@@]4(CCCOC4)C3)nc12 , please.
Result: > 7.00

###

This listing pairs compounds with measured pIC50.
Biological target: human A1 receptor (Homo sapiens)
Sequence (P30542 1-326): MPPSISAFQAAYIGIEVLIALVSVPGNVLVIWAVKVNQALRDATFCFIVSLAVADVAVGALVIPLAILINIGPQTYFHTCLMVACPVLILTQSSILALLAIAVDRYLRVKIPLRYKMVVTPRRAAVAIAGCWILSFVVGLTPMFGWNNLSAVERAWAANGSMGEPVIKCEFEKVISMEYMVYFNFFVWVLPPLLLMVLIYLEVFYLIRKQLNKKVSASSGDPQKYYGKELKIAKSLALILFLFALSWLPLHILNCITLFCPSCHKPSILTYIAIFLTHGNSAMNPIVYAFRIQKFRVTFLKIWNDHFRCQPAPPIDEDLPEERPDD
Experiment: cAMP (HTRF) functional assay, recombinant CHO cells expressing human A1 receptor, forskolin + agonist CPA
pIC50: −log10 of the molar value.

Ask: Recorded pIC50 of COc1ncc(-c2ccccc2)c2sc(NC(=O)N3CCC4(CCCOC4)C3)nc12 (stereo not drawn) , please.
Result: > 6.00

Ask: Recorded pIC50 of COc1ncc(-c2ccncc2)c2sc(NC(=O)c3ccc(C(=O)N(C)C)cc3)nc12 , please.
Result: < 6.00

Ask: Recorded pIC50 of COc1ccccc1-c1cnc(OC)c2nc(NC(=O)N3CCC4(CCOCC4)C3)sc12 , please.
Result: < 6.00

###

This listing pairs compounds with measured pIC50.
Target: UniProt P29275
Assay: cAMP (HTRF) functional assay, recombinant HEK293 cells expressing human A2B receptor, agonist NECA
pIC50: −log10 of the molar value.

COCc1ccc(C(=O)Nc2nc3c(OC)ncc(-c4cnn(C)c4)c3s2)cc1; > 6.00
COc1ncc(-c2ccccc2)c2sc(NC(=O)[C@H]3C[C@@H]3OC)nc12 (racemic); > 7.00
COCCn1cc(C(=O)Nc2nc3c(OC)ncc(C4CCOCC4)c3s2)cn1; > 7.00
COCc1ccc(C(=O)Nc2nc3c(OC)ncc(N4CCOCC4)c3s2)cc1; > 6.00
COc1nc(Cl)c(N2CCOCC2)c2sc(NC(=O)c3cnn(C)c3)nc12; > 7.00
COc1ncc(N2CCOCC2)c2sc(NC(=O)N3CCC(O)(Cc4ccccc4)CC3)nc12; > 7.00

Ask: Recorded pIC50 of COc1ncc(C2CCOCC2)c2sc(NC(=O)c3cnc(C)o3)nc12 , please.
Result: > 7.00

Ask: Recorded pIC50 of COc1nc(F)c(N2CCOCC2)c2sc(NC(=O)c3ccc(N4C(=O)CCC4=O)cc3)nc12 , please.
Result: > 8.00

Ask: Recorded pIC50 of COc1ncc(C2CCOCC2)c2sc(NC(=O)N3CCC4(CCOCC4)C3)nc12 , please.
Result: > 7.00

###

Target: human A2B receptor (Homo sapiens, UniProt P29275)
Experiment: cAMP (HTRF) functional assay, recombinant HEK293 cells expressing human A2B receptor, agonist NECA
pIC50: −log10 of the molar value.
ENDPOINT LABEL: pIC50

COc1nc(F)c(N2CCOCC2)c2sc(NC(=O)c3cnn(C)c3)nc12; > 8.00

Ask: Recorded pIC50 of COc1ncc(-c2cnn(C)c2)c2sc(NC(=O)N3CC[C@]4(CCOC4)C3)nc12 , please.
Result: > 7.00

Ask: Recorded pIC50 of COc1ncc(-c2cnn(C)c2)c2sc(NC(=O)c3ccc(CN(C)C)cc3)nc12 , please.
Result: > 7.00

Ask: Recorded pIC50 of COc1ccc(-c2cnc(OC)c3nc(NC(=O)N4CCC5(CCOCC5)C4)sc23)c(OC)n1 , please.
Result: < 6.00

###

Target: human A1 receptor (Homo sapiens, UniProt P30542)
Sequence (P30542 1-326): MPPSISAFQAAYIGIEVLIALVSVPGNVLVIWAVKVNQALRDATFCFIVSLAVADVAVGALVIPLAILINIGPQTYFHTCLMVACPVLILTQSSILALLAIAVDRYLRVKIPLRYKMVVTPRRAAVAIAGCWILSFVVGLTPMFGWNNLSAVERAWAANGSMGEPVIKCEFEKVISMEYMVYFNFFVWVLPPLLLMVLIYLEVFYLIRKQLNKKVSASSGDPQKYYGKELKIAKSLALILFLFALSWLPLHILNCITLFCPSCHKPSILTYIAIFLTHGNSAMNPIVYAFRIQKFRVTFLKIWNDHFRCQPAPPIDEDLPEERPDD
Experiment: cAMP (HTRF) functional assay, recombinant CHO cells expressing human A1 receptor, forskolin + agonist CPA
pIC50: −log10 of the molar value.
This listing pairs compounds with measured pIC50.

Reference set (8 entries):
COc1ncc(-c2cnn(C)c2)c2sc(NC(=O)C3CC3)nc12; < 6.00
COc1ncc(C2CCOCC2)c2sc(NC(=O)c3ccc(CN(C)C)cc3)nc12; < 6.00
COc1ncc(-c2ccccc2)c2sc(NC(=O)c3ccc(C(=O)N(C)C)cc3)nc12; > 6.00
COc1ncc(-c2ccccc2)c2sc(NC(=O)c3cnc(C)o3)nc12; > 6.00
COc1ncc(-c2ccccc2)c2sc(NC(=O)c3ccc(N4C(=O)CCC4=O)cc3)nc12; > 6.00
COc1ncc(-c2ccccc2)c2sc(NC(=O)C3CC3)nc12; > 6.00
COc1ncc(-c2cnn(C)c2)c2sc(NC(=O)N3CCC(C)(O)CC3)nc12; > 6.00
COc1ncc(-c2ccccc2)c2sc(NC(=O)N3CCC4(CCOCC4)C3)nc12; < 6.00

Ask: Kindly state the measured pIC50 obtained for COc1ncc(-c2cnn(C)c2)c2sc(NC(=O)c3cnc(C)o3)nc12 with human A1 receptor (Homo sapiens, UniProt P30542).
Result: > 6.00

Ask: Kindly state the measured pIC50 obtained for COc1ncc(N2CCOCC2)c2sc(NC(=O)c3ccc(N4C(=O)CCC4=O)cc3)nc12 with human A1 receptor (Homo sapiens, UniProt P30542).
Result: < 6.00

Ask: Kindly state the measured pIC50 obtained for COc1nc(Cl)c(-c2ccccc2)c2sc(NC(=O)N3CCC4(CCOCC4)C3)nc12 with human A1 receptor (Homo sapiens, UniProt P30542).
Result: < 6.00

Ask: Kindly state the measured pIC50 obtained for COc1ncc(N2CC3(CCCO3)C2)c2sc(NC(=O)c3cnn(C)c3)nc12 with human A1 receptor (Homo sapiens, UniProt P30542).
Result: < 6.00
